# experiment description: Therapeutic index, ratio of ip dosed Sprague-Dawley rat TD50 to ip dosed Sprague-Dawley rat ED50 for MES assay
# Type: toxicity, organism-based
# assay setup: in vivo, read-out: TI
observable: selectivity ratio
Answers are plain numbers.

Briefly, selectivity ratio measured for `c1ccc2c(OCCCCCN3CCCCC3)cccc2c1` : 3.4

* * *

# target or test system: UniProt:Q9Y5N1
# Sequence (Q9Y5N1 whole entry): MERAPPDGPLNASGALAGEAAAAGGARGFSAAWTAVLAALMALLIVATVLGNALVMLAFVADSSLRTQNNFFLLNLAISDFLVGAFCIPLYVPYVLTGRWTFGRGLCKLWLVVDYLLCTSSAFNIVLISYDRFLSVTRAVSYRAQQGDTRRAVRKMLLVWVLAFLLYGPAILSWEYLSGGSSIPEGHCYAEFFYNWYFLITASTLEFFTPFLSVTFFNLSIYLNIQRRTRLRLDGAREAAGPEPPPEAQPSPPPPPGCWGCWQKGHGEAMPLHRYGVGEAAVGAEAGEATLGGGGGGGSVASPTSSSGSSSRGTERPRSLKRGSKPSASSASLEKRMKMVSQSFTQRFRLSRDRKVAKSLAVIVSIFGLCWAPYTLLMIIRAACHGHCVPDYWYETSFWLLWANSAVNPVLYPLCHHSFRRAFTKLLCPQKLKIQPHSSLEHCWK
# experiment description: Displacement of [3H]N-alpha-methylhistamine from full length human H3 receptor expressed in HEK293 cell membranes after 90 mins
observable: Ki (nM)
Give bare numbers, in nM.

Would you please look over these solved cases?
| compound | Ki / nM |
| --- | --- |
| c1ccc2c(OCCCCCCN3CCCCCC3)cccc2c1 | 69.3 |
| CC1CCN(CCCCCCOc2cccc3ccccc23)CC1 | 126 |
| CC1CCN(CCCCCOc2cccc3ccccc23)CC1 | 43.3 |
| c1ccc2c(OCCCCCCN3CCCCC3)cccc2c1 | 52.9 |
| c1ccc2cc(OCCCCCN3CCCCCC3)ccc2c1 | 57.3 |
| CC1CCCN(CCCCCCOc2cccc3ccccc23)C1 (centres undefined) | 47.6 |
| c1ccc2cc(OCCCCCCN3CCCCC3)ccc2c1 | 61.8 |
| CC1CCN(CCCCCOc2ccc3ccccc3c2)CC1 | 95 |

Now, please, on to the next compound.
Value sought: Ki, system UniProt:Q9Y5N1, item `c1ccc2cc(OCCCCCCN3CCCCCC3)ccc2c1` . Result: 69.3

The reported measurements were obtained from ChEMBL document CHEMBL4118139.
